Entry source: patent US20240254082A1

target: PDE2A (Homo sapiens, UniProt O00408); assay: Selective inhibitory activity assay, PDE2A; type: biochemical; settings: 1 μM; read-out: Inhibition rate (%) of PDE2A
Sequence (O00408 whole entry, species assumed): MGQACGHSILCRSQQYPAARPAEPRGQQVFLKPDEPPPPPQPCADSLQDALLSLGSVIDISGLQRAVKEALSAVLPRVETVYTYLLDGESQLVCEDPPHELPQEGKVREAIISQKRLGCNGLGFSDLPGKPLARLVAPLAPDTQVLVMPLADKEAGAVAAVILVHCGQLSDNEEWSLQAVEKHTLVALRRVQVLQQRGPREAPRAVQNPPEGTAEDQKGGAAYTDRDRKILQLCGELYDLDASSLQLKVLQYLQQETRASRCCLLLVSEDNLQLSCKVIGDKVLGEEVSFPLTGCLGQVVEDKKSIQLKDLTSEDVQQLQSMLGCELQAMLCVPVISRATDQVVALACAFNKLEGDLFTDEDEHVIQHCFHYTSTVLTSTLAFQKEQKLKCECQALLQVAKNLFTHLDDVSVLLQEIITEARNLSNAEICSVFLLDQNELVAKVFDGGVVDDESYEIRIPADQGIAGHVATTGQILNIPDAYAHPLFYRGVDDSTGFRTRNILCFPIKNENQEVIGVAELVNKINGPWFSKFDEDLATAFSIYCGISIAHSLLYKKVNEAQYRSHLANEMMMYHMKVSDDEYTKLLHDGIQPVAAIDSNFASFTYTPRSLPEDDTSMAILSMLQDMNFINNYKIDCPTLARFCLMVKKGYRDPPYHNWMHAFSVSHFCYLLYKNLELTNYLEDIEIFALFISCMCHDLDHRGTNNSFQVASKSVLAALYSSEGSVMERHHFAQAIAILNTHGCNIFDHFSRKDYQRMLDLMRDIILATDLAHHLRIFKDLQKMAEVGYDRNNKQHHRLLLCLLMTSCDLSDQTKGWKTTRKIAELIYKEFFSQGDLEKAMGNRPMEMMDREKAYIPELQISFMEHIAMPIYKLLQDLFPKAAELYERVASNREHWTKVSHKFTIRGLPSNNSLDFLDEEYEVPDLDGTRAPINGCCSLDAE
assay-metric: inhibition at 1 µM (%)
Hi! Could you send only the number? It should be in %, unit omitted.

Kindly note: PDE2A (Homo sapiens, UniProt O00408), CCCCCc1ccc(NC(=O)CF)c2c1C(=O)N([C@H](CS(C)(=O)=O)c1ccc(OC)c(OCC)c1)C2=O [Example 28] , inhibition at 1 µM value reported: 0

Kindly note: PDE2A (Homo sapiens, UniProt O00408), CCCCCc1ccc(NC(=O)CCCCl)c2c1C(=O)N([C@H](CS(C)(=O)=O)c1ccc(OC)c(OCC)c1)C2=O [Example 5] , inhibition at 1 µM value reported: 0.83

// next item, inhibition at 1 µM requested
Kindly note: PDE2A (Homo sapiens, UniProt O00408), CCCCCc1ccc(NC(=O)CC)c2c1C(=O)N([C@H](CS(C)(=O)=O)c1ccc(OC)c(OCC)c1)C2=O [Example 13] , inhibition at 1 µM value reported: 0.08

----------
Recorded below: IC50, system PDE4D3 (Homo sapiens).

Noted for C=CC(=O)Nc1ccc(CCCCC)c2c1C(=O)N([C@H](CS(C)(=O)=O)c1ccc(OC)c(OCC)c1)C2=O [Example 29] : its IC50 reads 5 to 10 nM

Noted for CCCCCc1ccc(NC(=O)CO)c2c1C(=O)N([C@H](CS(C)(=O)=O)c1ccc(OC)c(OCC)c1)C2=O [Example 30] : its IC50 reads 50 to 200 nM

Noted for CCCCCCc1ccc2c(c1NC(=O)CCCCl)C(=O)N([C@H](CS(C)(=O)=O)c1ccc(OC)c(OCC)c1)C2=O [Example 1] : its IC50 reads 50 to 200 nM

Noted for CCCCCCCCCc1ccc(NC(=O)CCC)c2c1C(=O)N([C@H](CS(C)(=O)=O)c1ccc(OC)c(OCC)c1)C2=O [Example 16] : its IC50 reads > 200 nM

Noted for CCCCCc1ccc(NC(=O)CCC)c2c1C(=O)N([C@H](CS(C)(=O)=O)c1ccc(OC)c(OCC)c1)C2=O [Example 10] : its IC50 reads 50 to 200 nM

Noted for CCCC/C=C/c1ccc2c(c1NC(=O)CCCCl)C(=O)N([C@H](CS(C)(=O)=O)c1ccc(OC)c(OCC)c1)C2=O [Example 2] : its IC50 reads 10 to 50 nM

Noted for CCCCCc1ccc(NC(=O)CCl)c2c1C(=O)N([C@H](CS(C)(=O)=O)c1ccc(OC)c(OCC)c1)C2=O [Example 25] : its IC50 reads 10 to 50 nM

Others:
Noted for CCCCCc1ccc(CNC(C)=O)c2c1C(=O)N([C@H](CS(C)(=O)=O)c1ccc(OC)c(OCC)c1)C2=O [Example 4] : its IC50 reads 10 to 50 nM

----------
molecular target: PDE4A1 (Homo sapiens)
Sequence (P27815 1-647 isoform P27815-4): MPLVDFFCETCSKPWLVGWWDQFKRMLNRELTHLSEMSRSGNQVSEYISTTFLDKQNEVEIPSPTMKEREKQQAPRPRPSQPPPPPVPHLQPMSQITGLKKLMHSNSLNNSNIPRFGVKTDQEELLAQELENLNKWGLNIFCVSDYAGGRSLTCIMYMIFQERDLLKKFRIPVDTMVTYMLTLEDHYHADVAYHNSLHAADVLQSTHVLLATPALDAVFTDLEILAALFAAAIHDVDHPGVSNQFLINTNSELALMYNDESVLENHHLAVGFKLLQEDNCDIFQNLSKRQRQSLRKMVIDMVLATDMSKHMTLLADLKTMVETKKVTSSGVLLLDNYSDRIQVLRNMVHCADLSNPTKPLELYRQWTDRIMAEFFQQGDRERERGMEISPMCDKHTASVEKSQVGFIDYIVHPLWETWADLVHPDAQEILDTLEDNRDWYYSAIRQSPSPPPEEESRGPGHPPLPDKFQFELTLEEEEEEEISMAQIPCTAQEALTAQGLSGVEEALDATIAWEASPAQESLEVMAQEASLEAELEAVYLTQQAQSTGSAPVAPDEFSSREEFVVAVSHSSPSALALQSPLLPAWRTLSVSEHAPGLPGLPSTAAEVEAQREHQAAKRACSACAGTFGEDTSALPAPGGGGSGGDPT
This listing pairs compounds with measured IC50.

Please review the entries below; each comes with its answer.
Noted for CCCCCc1ccc(NC(=O)CCCCl)c2c1C(=O)N([C@H](CS(C)(=O)=O)c1ccc(OC)c(OCC)c1)C2=O : its IC50 reads < 100 nM

Noted for CCCCCc1ccc(NC(=O)CC)c2c1C(=O)N([C@H](CS(C)(=O)=O)c1ccc(OC)c(OCC)c1)C2=O : its IC50 reads 100 to 200 nM

Noted for [2H]C([2H])(CCCC)c1ccc(NC(C)=O)c2c1C(=O)N([C@H](CS(C)(=O)=O)c1ccc(OC)c(OCC)c1)C2=O : its IC50 reads < 100 nM

// next item, IC50 requested
Noted for CCCCC(=O)c1ccc(NC(C)=O)c2c1C(=O)N([C@H](CS(C)(=O)=O)c1ccc(OC)c(OCC)c1)C2=O : its IC50 reads < 100 nM

----------
molecular target: PDE3B (Homo sapiens); test: Selective inhibitory activity assay, PDE3B; assay type: biochemical; conditions: 1 μM; read-out: Inhibition rate (%) of PDE3B
This listing pairs molecules with measured inhibition at 1 µM.
Hi! Could you send only the number? It should be in %, unit omitted.

Noted for CCOc1cc([C@@H](CS(C)(=O)=O)N2C(=O)c3cccc(NC(C)=O)c3C2=O)ccc1OC [Example 0, Apremilast, reference compound] : its inhibition at 1 µM reads 2.44

Others:
Noted for CCCC#Cc1ccc(NC(C)=O)c2c1C(=O)N([C@H](CS(C)(=O)=O)c1ccc(OC)c(OCC)c1)C2=O : its inhibition at 1 µM reads 1.81

Noted for CCCCCc1ccc(NC(=O)CF)c2c1C(=O)N([C@H](CS(C)(=O)=O)c1ccc(OC)c(OCC)c1)C2=O : its inhibition at 1 µM reads 3.69

Noted for C=CC(=O)Nc1ccc(CCCCC)c2c1C(=O)N([C@H](CS(C)(=O)=O)c1ccc(OC)c(OCC)c1)C2=O : its inhibition at 1 µM reads 0

----------
Molecular target: PDE1C (Homo sapiens, UniProt Q14123)
Sequence (Q14123 whole entry, species assumed): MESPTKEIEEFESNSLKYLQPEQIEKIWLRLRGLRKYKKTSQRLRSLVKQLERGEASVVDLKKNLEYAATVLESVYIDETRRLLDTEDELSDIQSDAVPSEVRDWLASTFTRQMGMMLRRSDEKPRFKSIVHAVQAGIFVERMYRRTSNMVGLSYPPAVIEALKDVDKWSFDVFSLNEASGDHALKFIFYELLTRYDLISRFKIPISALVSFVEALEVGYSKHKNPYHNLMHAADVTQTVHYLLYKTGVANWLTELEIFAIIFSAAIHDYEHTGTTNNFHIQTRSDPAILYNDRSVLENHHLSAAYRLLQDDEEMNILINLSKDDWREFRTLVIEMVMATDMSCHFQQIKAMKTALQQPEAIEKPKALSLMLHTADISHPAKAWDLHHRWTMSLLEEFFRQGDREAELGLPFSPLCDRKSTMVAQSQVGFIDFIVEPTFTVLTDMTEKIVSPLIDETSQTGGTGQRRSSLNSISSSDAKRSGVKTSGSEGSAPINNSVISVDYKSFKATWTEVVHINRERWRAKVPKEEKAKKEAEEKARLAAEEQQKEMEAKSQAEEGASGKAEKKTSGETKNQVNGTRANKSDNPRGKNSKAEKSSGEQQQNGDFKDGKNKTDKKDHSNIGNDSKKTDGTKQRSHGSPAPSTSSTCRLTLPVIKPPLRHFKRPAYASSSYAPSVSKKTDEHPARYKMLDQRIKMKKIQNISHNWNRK
Assay: Selective inhibitory activity assay, PDE1C
Type: biochemical
Conditions: 1 μM; read-out: Inhibition rate (%) of PDE1C
Experimental: 7. Selective inhibitory activity assay for PDE1, 2, 3, 5, 7, 10 and 11 enzymes The selective specificity of compounds for PDE4 was assessed by assaying single concentrations of the compounds. For example, PDE1a enzyme, PDElc enzyme, PDE2a enzyme, PDE3a enzyme, PDE3b enzyme, PDE5a1 enzyme, PDE7a enzyme, PDE7b enzyme, PDE10a1 enzyme and PDE11a4 enzyme were tested. […]
Response key: 1 means inhibition at 1 µM >= 5%; 0 means inhibition at 1 µM < 5%.

Check out these entries, answers already filled in.
Input: Quick check, inhibition at 1 µM >= 5%? CCCCCc1ccc(NC(=O)CCl)c2c1C(=O)N([C@H](CS(C)(=O)=O)c1ccc(OC)c(OCC)c1)C2=O
Output: 0

Input: Quick check, inhibition at 1 µM >= 5%? CCCCCc1ccc(NC(=O)CC)c2c1C(=O)N([C@H](CS(C)(=O)=O)c1ccc(OC)c(OCC)c1)C2=O
Output: 1

Input: Quick check, inhibition at 1 µM >= 5%? CCCCCc1ccc(NC(C)=O)c2c1C(=O)N([C@H](CS(C)(=O)=O)c1ccc(OC)c(OCC)c1)C2=O
Output: 0

Input: Quick check, inhibition at 1 µM >= 5%? CCCCc1ccc(NC(=O)CCCCl)c2c1C(=O)N([C@H](CS(C)(=O)=O)c1ccc(OC)c(OCC)c1)C2=O
Output: 1

Input: Quick check, inhibition at 1 µM >= 5%? CCOc1cc([C@@H](CS(C)(=O)=O)N2C(=O)c3cccc(NC(C)=O)c3C2=O)ccc1OC [Example 0, Apremilast, reference compound]
Output: 1

Input: Quick check, inhibition at 1 µM >= 5%? CCCCCc1ccc(NC(=O)CCCl)c2c1C(=O)N([C@H](CS(C)(=O)=O)c1ccc(OC)c(OCC)c1)C2=O
Output: 0

Read the next record carefully.
Input: Quick check, inhibition at 1 µM >= 5%? C=CC(=O)Nc1ccc(CCCCC)c2c1C(=O)N([C@H](CS(C)(=O)=O)c1ccc(OC)c(OCC)c1)C2=O
Output: 0

----------
molecular target: PDE5A1 (Homo sapiens, UniProt O76074); test: Selective inhibitory activity assay, PDE5A1; type: biochemical; details: 10 μM; read-out: Inhibition rate (%) of PDE5A1
This listing pairs compounds with measured inhibition at 10 µM.
Hi! Could you send only the number? It should be in %, unit omitted.

Noted for CCCCCc1ccc(NC(=O)CCl)c2c1C(=O)N([C@H](CS(C)(=O)=O)c1ccc(OC)c(OCC)c1)C2=O [Example 25] : its inhibition at 10 µM reads 8.17

----------
This listing pairs compounds with measured inhibition at 10 µM.
Target: PDE3B (Homo sapiens, UniProt Q13370)
Sequence (Q13370 whole entry, species assumed): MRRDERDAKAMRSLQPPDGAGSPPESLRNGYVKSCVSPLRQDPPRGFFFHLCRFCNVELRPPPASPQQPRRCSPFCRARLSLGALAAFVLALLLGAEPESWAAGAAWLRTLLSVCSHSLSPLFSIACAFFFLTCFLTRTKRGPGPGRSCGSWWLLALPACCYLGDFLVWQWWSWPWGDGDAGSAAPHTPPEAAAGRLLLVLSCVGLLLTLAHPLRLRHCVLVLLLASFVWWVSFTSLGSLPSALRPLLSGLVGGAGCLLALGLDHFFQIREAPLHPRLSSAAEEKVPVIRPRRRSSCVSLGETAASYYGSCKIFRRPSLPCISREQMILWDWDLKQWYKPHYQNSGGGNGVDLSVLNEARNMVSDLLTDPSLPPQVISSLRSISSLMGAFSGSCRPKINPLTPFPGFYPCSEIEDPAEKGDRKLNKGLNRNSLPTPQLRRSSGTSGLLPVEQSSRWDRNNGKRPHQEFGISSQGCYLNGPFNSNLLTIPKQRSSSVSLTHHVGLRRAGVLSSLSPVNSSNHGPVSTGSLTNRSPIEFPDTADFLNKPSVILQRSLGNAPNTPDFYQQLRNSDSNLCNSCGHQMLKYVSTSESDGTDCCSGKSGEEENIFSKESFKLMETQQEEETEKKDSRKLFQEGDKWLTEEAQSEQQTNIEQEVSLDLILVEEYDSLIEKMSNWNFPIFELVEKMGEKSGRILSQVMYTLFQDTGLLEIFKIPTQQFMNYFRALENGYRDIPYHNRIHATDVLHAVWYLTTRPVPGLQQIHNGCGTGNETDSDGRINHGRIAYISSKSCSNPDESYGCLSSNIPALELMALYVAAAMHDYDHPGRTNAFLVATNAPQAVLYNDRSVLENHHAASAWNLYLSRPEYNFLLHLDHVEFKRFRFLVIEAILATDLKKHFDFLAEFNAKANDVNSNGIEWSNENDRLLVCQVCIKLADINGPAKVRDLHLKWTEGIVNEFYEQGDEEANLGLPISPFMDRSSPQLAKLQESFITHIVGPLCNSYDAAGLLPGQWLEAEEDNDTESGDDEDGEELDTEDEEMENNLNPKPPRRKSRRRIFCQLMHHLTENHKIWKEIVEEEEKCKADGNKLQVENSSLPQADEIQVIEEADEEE
Assay: Selective inhibitory activity assay, PDE3B
Format: biochemical
Conditions: 10 μM; read-out: Inhibition rate (%) of PDE3B
Description: 7. Selective inhibitory activity assay for PDE1, 2, 3, 5, 7, 10 and 11 enzymes The selective specificity of compounds for PDE4 was assessed by assaying single concentrations of the compounds. For example, PDE1a enzyme, PDElc enzyme, PDE2a enzyme, PDE3a enzyme, PDE3b enzyme, PDE5a1 enzyme, PDE7a enzyme, PDE7b enzyme, PDE10a1 enzyme and PDE11a4 enzyme were tested. […]
Record the result as number plus unit.

Noted for CCOc1cc([C@@H](CS(C)(=O)=O)N2C(=O)c3cccc(NC(C)=O)c3C2=O)ccc1OC [Example 0, Apremilast, reference compound] : its inhibition at 10 µM reads 1.56%

Noted for CCCCCc1ccc(NC(C)=O)c2c1C(=O)N([C@H](CS(C)(=O)=O)c1ccc(OC)c(OCC)c1)C2=O [Example 9] : its inhibition at 10 µM reads 0.81%

// next item, inhibition at 10 µM requested
Noted for CCCCc1ccc(NC(=O)CCCCl)c2c1C(=O)N([C@H](CS(C)(=O)=O)c1ccc(OC)c(OCC)c1)C2=O [Example 27] : its inhibition at 10 µM reads -1.31%
